A collection of compounds and their measured Index thérapeutique
system: Plasmodium vinckei, petteri, ou chabaudi; test: Therapeutic index in infected mice: 4-day Peters test activity versus semi-chronic toxicity (DL 50); format: in vivo, souris Swiss mâles; conditions: ratio of activity to toxicity under identical conditions, intraperitoneal or subcutaneous, twice a day for 4 days
Lab note: jot down the number only; don't add units.

Supply measured Index thérapeutique of C=CC[N+](C)(C)CCCCCCCCCCCCCC[N+](C)(C)CC=C in your reply.
15

Supply measured Index thérapeutique of C#CCC[N+](C)(C)CCCCCCCCCCCCCC[N+](C)(C)CCC#C in your reply.
45

Supply measured Index thérapeutique of CC[N+](C)(CC)CCCCCCCCCCCCCCCCCC[N+](C)(CC)CC in your reply.
14

Supply measured Index thérapeutique of C[N+]1(CCCCCCCCCCCCCC[N+]2(C)CCCC2)CCCC1 in your reply.
8

---

tested on: Babesia Bovis, Babesia Canis; assay: In vitro anti-Babesia activity, (3H) hypoxanthine incorporation; type: cell-based; details: class of ID 50 for (3H) hypoxanthine incorporation; read-out: Activité/ Babesia à 10 millimole
pIC50: −log10 of the molar value.
A collection of compounds and their measured pIC50

As a guide, the following entries are already answered.
Compound: CCC[N+](CCC)(CCC)CCCCCCCCCCCCCCCC[N+](CCC)(CCC)CCC [EXEMPLE 12]
pIC50: 7.00 to 8.00

Compound: CC[N+](C)(CC)CCCCCCCCCCCCCCCC[N+](C)(CC)CC
pIC50: > 8.00

Moving on to the next compound.
Supply measured pIC50 of C[N+]1(CCCCCCCCCCCCCCCC[N+]2(C)CCCC(CO)C2)CCCC(CO)C1 (centres unmarked) in your reply.
> 8.00

---

tested on: Babesia Bovis, Babesia Canis; test: In vitro anti-Babesia activity, (3H) hypoxanthine incorporation; format: cell-based; conditions: class of ID 50 for (3H) hypoxanthine incorporation; read-out: Activité/ Babesia à 10 millimole
A collection of compounds and their measured IC50

As a guide, the following entries are already answered.
Compound: C[N+]1(CCCCCCCCCCCCCCCC[N+]2(C)CCCC2CO)CCCC1CO (centres unmarked)
IC50: < 10 nM

Compound: CCCCCCCCCCCC[N+](C)(C)CCCCCCCCCCCCCCCC[N+](C)(C)CCCCCCCCCCCC
IC50: 10 to 100 nM

Compound: C[N+]1(CCCCCCCCCCCCCCCCCCCCCC[N+]2(C)CCCC2CO)CCCC1CO (centres unmarked)
IC50: 100 to 1000 nM

Compound: CCC[N+](C)(CC)CCCCCCCCCCCCCCC[N+](C)(CC)CCC (centres unmarked)
IC50: 100 to 1000 nM

Supply measured IC50 of CCC[N+](CCC)(CCC)CCCCCCCCCCCCCCCC[N+](CCC)(CCC)CCC [EXEMPLE 9] in your reply.
< 10 nM
